Test: Hemolytic activity in human RBC at 100 uM after 45 mins by spectrophotometric method relative to control
Format: ADME, cell-based, Erythrocyte
Conditions: red blood cells (erythrocytes), read-out: Activity
The molecules listed here are annotated with their hemolysis at 0.75 h, 100 µM.
State the answer as a number, implicitly in %.

Here's what some known entries look like.
CCCCCCc1ccc(-c2ccc(C(=O)N[C@@H](CCCN)C(=O)N[C@H](C(=O)N[C@@H](C)C(=O)N[C@H]3Cc4cn(nn4)CCN4C[C@@H]5OB(O[C@@H]5C4)[C@H](C)NC3=O)[C@@H](C)O)cc2)cc1; 10.1
CCCCCCc1ccc(-c2nc3cc(C(=O)N[C@@H](CCCN)C(=O)N[C@H](C(=O)N[C@@H](C)C(=O)N[C@H]4Cc5cn(nn5)CCO[C@@H]5C[C@@H]6OB(O[C@@H]6C5)[C@H](C)NC4=O)[C@@H](C)O)ccc3[nH]2)cc1; 0.5
C[C@@H]1NC(=O)[C@@H](NC(=O)[C@H](C)NC(=O)[C@@H](NC(=O)[C@H](CCCN)NC(=O)c2ccc(=O)n(-c3ccccc3)c2)[C@@H](C)O)Cc2cn(nn2)CCO[C@@H]2C[C@@H]3OB1O[C@@H]3C2; 0.04

Query: Bench note: what hemolysis at 0.75 h, 100 µM did `C[C@@H]1NC(=O)[C@@H](NC(=O)[C@H](C)NC(=O)[C@@H](NC(=O)[C@H](CCCN)NC(=O)c2ccc(-c3ccccc3)cc2)[C@@H](C)O)Cc2cn(nn2)CCO[C@@H]2C[C@@H]3OB1O[C@@H]3C2` show?
Result: 0.2

----------
Target: Signal peptidase I (Escherichia coli K-12) (UniProt P00803)
Sequence (P00803 whole entry): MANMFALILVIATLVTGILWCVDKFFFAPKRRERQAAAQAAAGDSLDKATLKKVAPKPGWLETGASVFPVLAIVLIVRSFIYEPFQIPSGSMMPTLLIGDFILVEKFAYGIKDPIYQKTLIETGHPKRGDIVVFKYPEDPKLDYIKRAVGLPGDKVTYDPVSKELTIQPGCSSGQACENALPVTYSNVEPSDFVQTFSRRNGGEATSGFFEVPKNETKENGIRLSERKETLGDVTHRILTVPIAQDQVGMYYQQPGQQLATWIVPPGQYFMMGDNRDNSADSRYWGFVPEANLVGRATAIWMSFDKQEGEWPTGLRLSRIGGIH
Experiment: Inhibition of Escherichia coli type 1 signal peptidase lepB assessed as residual activity at 2.5 uM preincubated for 10 mins followed by Dabcyl-VGGTATAYGAFSRPGLE-(EDANS)-OH substrate addition measured after 2 hrs by FRET based assay (reference value: 100%)
Measure Name: Activity (%)
# value in %; strip the unit string

CCCCCCc1ccc(-c2ccc(C(=O)N[C@@H](CCCN)C(=O)N(C)[C@H](C(=O)N[C@@H](C)C(=O)N[C@H]3Cc4cn(nn4)CCCN4C[C@@H]5OB(O[C@@H]5C4)[C@H](C)NC3=O)[C@@H](C)O)cc2)cc1; 18.2
C[C@@H]1NC(=O)[C@@H](NC(=O)[C@H](C)NC(=O)[C@@H](NC(=O)[C@H](CCCN)NC(=O)c2ccc(=O)n(-c3ccccc3)c2)[C@@H](C)O)Cc2cn(nn2)CCO[C@@H]2C[C@@H]3OB1O[C@@H]3C2; 42.8
CCCCCCc1ccc(-c2ccc(C(=O)N[C@@H](CCCN)C(=O)N[C@H](C(=O)N[C@@H](C)C(=O)N[C@H]3Cc4cn(nn4)CCO[C@@H]4C[C@@H]5OB(O[C@@H]5C4)[C@H](C)NC3=O)[C@@H](C)O)cc2)cc1; 27.1

Query: Could you share what Activity was measured for `CCCCCCc1ccc(-n2cc(C(=O)N[C@@H](CCCN)C(=O)N[C@H](C(=O)N[C@@H](C)C(=O)N[C@H]3Cc4cn(nn4)CCO[C@@H]4C[C@@H]5OB(O[C@@H]5C4)[C@H](C)NC3=O)[C@@H](C)O)ccc2=O)cc1` , tested on Signal peptidase I (Escherichia coli K-12) (UniProt P00803)?
Result: 17.3

----------
Target: Signal peptidase I (Escherichia coli K-12)
Assay: Inhibition of Escherichia coli type 1 signal peptidase lepB assessed as residual activity at 1.25 uM preincubated for 10 mins followed by Dabcyl-VGGTATAYGAFSRPGLE-(EDANS)-OH substrate addition measured after 2 hrs by FRET based assay (reference value: 100%)
Square brackets hold non-standard residues; d marks the D form. Peptide text beside a SMILES is read from it. * marks the point of attachment. Benzoyl(4-(4-hexylphenyl)) = CCCCCCc1ccc(-c2ccc(C(=O)*)cc2)cc1; X1 = C[C@H](N*)B1OC2C[C@@H]3C[C@@H](C3(C)C)[C@]2(C)O1; boroAla = C[C@H](N*)B(O)O; Orn = NCCC[C@H](N)C(=O)O
Decision: Activity >= 30% yields Condition met, all other cases yield Condition not met.

Some solved cases for reference:
CCCCCCc1ccc(-c2ccc(C(=O)N[C@@H](CCCNC(=N)N)C(=O)N[C@H](C(=O)N[C@@H](C)C(=O)N[C@H]3Cc4cn(nn4)CCCN4C[C@@H]5OB(O[C@@H]5C4)[C@H](C)NC3=O)[C@@H](C)O)cc2)cc1; Condition met
CCCCCCc1ccc(-c2ccc(C(=O)N[C@@H](CCCN)C(=O)N(C)[C@H](C(=O)N[C@@H](C)C(=O)N[C@H]3Cc4cn(nn4)CCCN4C[C@@H]5OB(O[C@@H]5C4)[C@H](C)NC3=O)[C@@H](C)O)cc2)cc1; Condition not met
C[C@@H]1NC(=O)[C@@H](NC(=O)[C@H](C)NC(=O)[C@@H](NC(=O)[C@H](CCCN)NC(=O)c2ccc(-c3ccccc3)cc2)[C@@H](C)O)Cc2cn(nn2)CCO[C@@H]2C[C@@H]3OB1O[C@@H]3C2; Condition not met

Query: In plain terms: is recorded Activity at least 30% for `CCCCCCc1ccc(-c2ccc(C(=O)N[C@@H](Cc3cnc[nH]3)C(=O)N[C@H](C(=O)N[C@@H](C)C(=O)N[C@H]3Cc4cn(nn4)CCCN4C[C@@H]5OB(O[C@@H]5C4)[C@H](C)NC3=O)[C@@H](C)O)cc2)cc1` ?
Result: Condition met

Query: Say whether CCCCCCc1ccc(-c2ccc(C(=O)N[C@@H](CCCN)C(=O)N[C@H](C(=O)N[C@@H](C)C(=O)N[C@@H](CC(N)=O)C(=O)N[C@@H](C)B3OC4C[C@@H]5C[C@@H](C5(C)C)[C@]4(C)O3)[C@@H](C)O)cc2)cc1 (some centres undefined) ({Benzoyl(4-(4-hexylphenyl))}-[Orn]TAN-X1) shows Activity of 30% or more.
Result: Condition not met

Query: Given `CCCCCCc1ccc(-c2ccc(C(=O)N[C@@H](CCCN)C(=O)N[C@H](C(=O)N[C@@H](C)C(=O)N[C@H]3Cc4cn(nn4)CCO[C@@H]4C[C@@H]5OB(O[C@@H]5C4)[C@H](C)NC3=O)[C@@H](C)O)cc2)cc1` , state whether its Activity is at least 30%.
Result: Condition met

Query: Dear colleague, could you confirm whether `CCCCCCC#Cc1cncc(C(=O)N[C@@H](CCCN)C(=O)N[C@H](C(=O)N[C@@H](C)C(=O)N[C@H]2Cc3cn(nn3)CCO[C@@H]3C[C@@H]4OB(O[C@@H]4C3)[C@H](C)NC2=O)[C@@H](C)O)c1` has Activity at or above 30%?
Result: Condition not met

Query: Could you verify whether the entry CCCCCCc1ccc(-c2ccc(C(=O)N[C@@H](CCCN)C(=O)N[C@H](C(=O)N[C@@H](C)C(=O)N[C@@H](CC(N)=O)C(=O)N[C@@H](C)B(O)O)[C@@H](C)O)cc2)cc1 ({Benzoyl(4-(4-hexylphenyl))}-[Orn]TAN-boroAla) shows Activity of no less than 30%?
Result: Condition not met

Query: Does Activity meet or surpass 30% for `CCCCCCc1ccc(-c2nc3cc(C(=O)N[C@@H](CCCN)C(=O)N[C@H](C(=O)N[C@@H](C)C(=O)N[C@H]4Cc5cn(nn5)CCO[C@@H]5C[C@@H]6OB(O[C@@H]6C5)[C@H](C)NC4=O)[C@@H](C)O)ccc3[nH]2)cc1` ?
Result: Condition not met

----------
Assay: Hemolytic activity in human RBC at 100 uM after 45 mins by spectrophotometric method relative to control
Assay type: ADME, cell-based, Erythrocyte
Conditions: red blood cells (erythrocytes), read-out: Activity
Measure Name: hemolysis at 0.75 h, 100 µM

Solved cases (3 shown):
CCCCCCc1ccc(-c2ccc(C(=O)N[C@@H](CCCNC(=N)N)C(=O)N[C@H](C(=O)N[C@@H](C)C(=O)N[C@H]3Cc4cn(nn4)CCCN4C[C@@H]5OB(O[C@@H]5C4)[C@H](C)NC3=O)[C@@H](C)O)cc2)cc1; 21%
CCCCCCc1ccc(-c2ccc(C(=O)N3CC(CN)C[C@H]3C(=O)N[C@H](C(=O)N[C@@H](C)C(=O)N[C@@H](CC(N)=O)C(=O)N[C@@H](C)B(O)O)[C@@H](C)O)cc2)cc1 (some centres undefined); 2.5%
CCCCCCc1ccc(-c2ccc(C(=O)N[C@@H](CCCN)C(=O)N[C@H](C(=O)N[C@@H](C)C(=O)N[C@H]3Cc4cn(nn4)CCO[C@@H]4C[C@@H]5OB(O[C@@H]5C4)[C@H](C)NC3=O)[C@@H](C)O)cc2)cc1; 10.6%

Turning to the following molecule.
Query: Item `CCCCCCc1ccc(-c2ccc(C(=O)N[C@@H](CCCN)C(=O)N(C)[C@H](C(=O)N[C@@H](C)C(=O)N[C@H]3Cc4cn(nn4)CCCN4C[C@@H]5OB(O[C@@H]5C4)[C@H](C)NC3=O)[C@@H](C)O)cc2)cc1` has what recorded hemolysis at 0.75 h, 100 µM?
Result: 9.6%
